- Assay Summary: in vitro
- Details: human, liver microsomes
Assay Readout: microsomal CLint at 1 h (µL/min/mg)
Write it as a number; the unit µL/min/mg goes unstated.

> print(dat)
                          chemical.structure            assay.readout       unit  value.reported
 1  CCC1=C(CC)/C(=C/NC2CCCCC2)N=C1c1ccc(Cc2ccc(OC)cc2)[nH]1  microsomal CLint at 1 h  µL/min/mg            3.37
 2  CCC1=C(CC)/C(=C/NC2CCCCCCC2)N=C1c1ccc(-c2ccccc2)[nH]1  microsomal CLint at 1 h  µL/min/mg            42.1
 3  CCC1=C(CC)/C(=C/NC23C[C@H]4C[C@@H](C2)C[C@@H](C3)C4)N=C1c1ccc(-c2ccccc2)[nH]1  microsomal CLint at 1 h  µL/min/mg            29.5
 4  CCc1ccc(C2=N/C(=C\NC3CCCCCC3)C(OC)=C2OC)[nH]1  microsomal CLint at 1 h  µL/min/mg            12.6
 5  CCC1=C(CC)/C(=C/NC23C[C@H]4C[C@@H](C2)C[C@@H](C3)C4)N=C1c1ccc(C)[nH]1  microsomal CLint at 1 h  µL/min/mg            39.7
 6  [2H]C([2H])(C)c1ccc(C2=N/C(=C\NC3CCCCCC3)C(C)=C2C)[nH]1  microsomal CLint at 1 h  µL/min/mg              14
 7  CCC1=C(CC)/C(=C/NC23C[C@H]4C[C@@H](C2)C[C@@H](C3)C4)N=C1c1ccc(Cc2ccc(OC)cc2)[nH]1  microsomal CLint at 1 h  µL/min/mg            11.7
 8  C(/NC12C[C@H]3C[C@@H](C1)C[C@@H](C2)C3)=C1/N=C(c2ccc[nH]2)C2=C1OCCO2  microsomal CLint at 1 h  µL/min/mg             118
 9  CCC1=C(CC)/C(=C/N[C@H]2CC[C@H](C(=O)OC)CC2)N=C1c1ccc[nH]1  microsomal CLint at 1 h  µL/min/mg            96.4
10  COc1ccc(Cc2ccc(C3=N/C(=C\NC4CCCCCC4)C4=C3CCCC4)[nH]2)cc1  microsomal CLint at 1 h  µL/min/mg            3.18

stdin: Can you share its microsomal CLint at 1 h? I mean this compound: C(/NC1CCCCCC1)=C1/N=C(c2ccc[nH]2)C2=C1OCCO2
stdout: 92.8

stdin: Subsequent entry: CC1=C(C)/C(=C/NC2CCCCC2)N=C1c1ccc(C)[nH]1
stdout: 13.6

stdin: Subsequent entry: CCc1ccc(C2=N/C(=C\NC3CCCCC3)C3=C2OCCO3)[nH]1
stdout: 27

stdin: Subsequent entry: CCc1ccc(C2=N/C(=C\NC3CCCCC3)C(OC)=C2OC)[nH]1
stdout: 16.8

###

- Assay Summary: Apparent permeability across basolateral to apical side in MDCK transfected with human MDR1 cells incubated for 1 hr by LC-MS analysis
- Details: dog, mdck, 1 h
Assay Readout: Papp (×10⁻⁶ cm/s)
Write it as a number; the unit ×10⁻⁶ cm/s goes unstated.

> print(dat)
                         chemical.structure  assay.readout  value.reported
1  CCC1=C(CC)/C(=C/NC2CCCCCC2)N=C1c1ccc(C)[nH]1           Papp            0.45
2  COc1ccc(Cc2ccc(C3=N/C(=C\NC4CCCCCC4)C4=C3OCCO4)[nH]2)cc1           Papp            0.57
3  CCC1=C(CC)/C(=C/NC23C[C@H]4C[C@@H](C2)C[C@@H](C3)C4)N=C1c1ccc(Br)[nH]1           Papp            0.39
4  CCC1=C(CC)/C(=C/NC23C[C@H]4C[C@@H](C2)C[C@@H](C3)C4)N=C1c1cc2cc(Cl)ccc2[nH]1           Papp            0.85
5  CCC1=C(CC)/C(=C/NC2CCCCCCC2)N=C1c1ccc(CC)[nH]1           Papp            0.28
6  CCC1=C(CC)/C(=C/NC2CCCCC2)N=C1c1ccc(Cc2ccc(OC)cc2)[nH]1           Papp            0.43

Now consider the entry below.
stdin: Can you share its Papp? I mean this molecule: CCC1=C(CC)/C(=C/NC2CCCCC2)N=C1c1ccc(Br)[nH]1
stdout: 0.15
